Please respond with reported concentration at 7 h for every item in the list.
test summary: Cmin in B6 mouse at 8 mg/kg, po measured after 7 hrs by UV-HPLC analysis
Assay type: ADME, organism-based
condition description: in vivo, read-out: Cmin
Express the result in ng/mL but write the number alone.

Enquiry: For the molecule "Cc1cc(C(=O)Nc2cc(Nc3ccc4c(/C=C/c5ccccn5)n[nH]c4c3)ccc2F)n(C)n1.Cl" , give its reported concentration at 7 h.
Return: 1900

Enquiry: For the molecule "CCn1nc(C)cc1C(=O)Nc1cccc(C(=O)c2ccc3c(/C=C/c4ccccn4)n[nH]c3c2)c1.Cl" , give its reported concentration at 7 h.
Return: 122

====

test summary: Antiproliferative activity against VEGF-stimulated HUVEC cells assessed as reduction in cell viability at 10 nM preincubated for 1 hr followed by addition of VEGF measured after 72 hrs by MTT assay
Assay type: functional
condition description: Homo sapiens
metric: inhibition at 0.01 µM (%)
Express the result in % but write the number alone.

Enquiry: For the compound O=C(CC1CC2CCC1C2)Nc1cccc(C(=O)c2ccc3c(/C=C/c4ccccc4)n[nH]c3c2)c1 (configuration not stated) , give its reported inhibition at 0.01 µM.
Return: 75

Enquiry: For the compound "C/C(=C\C(=O)Nc1cccc(C(=O)c2ccc3c(/C=C/c4ccccc4)n[nH]c3c2)c1)c1ccccc1C" , give its reported inhibition at 0.01 µM.
Return: 99

Enquiry: For the compound CC(C)CC(O)C(=O)Nc1cccc(Nc2ccc3c(/C=C/c4ccccc4)n[nH]c3c2)c1 (configuration not stated) , give its reported inhibition at 0.01 µM.
Return: 25

Enquiry: For the compound "CCO/C(C)=C/C(=O)Nc1cccc(Oc2ccc3c(/C=C/c4ccccc4)n[nH]c3c2)c1" , give its reported inhibition at 0.01 µM.
Return: 87

Enquiry: For the compound "C/C=C(\C)C(=O)Nc1cccc(Nc2ccc3c(/C=C/c4ccccc4)n[nH]c3c2)c1" , give its reported inhibition at 0.01 µM.
Return: 98

Enquiry: For the compound "O=C(CCN1CCCCC1)Nc1cccc(C(=O)c2ccc3c(/C=C/c4ccccc4)n[nH]c3c2)c1" , give its reported inhibition at 0.01 µM.
Return: 2

Enquiry: For the compound CC(C)=NOC(C)C(=O)Nc1cccc(C(=O)c2ccc3c(/C=C/c4ccccc4)n[nH]c3c2)c1 (configuration not stated) , give its reported inhibition at 0.01 µM.
Return: 28

Enquiry: For the compound "CN(C)CCCC(=O)Nc1cccc(Oc2ccc3c(/C=C/c4ccccc4)n[nH]c3c2)c1" , give its reported inhibition at 0.01 µM.
Return: 96

Enquiry: For the compound "Cc1nc(S)sc1CC(=O)Nc1cccc(Nc2ccc3c(/C=C/c4ccccc4)n[nH]c3c2)c1" , give its reported inhibition at 0.01 µM.
Return: 19

Enquiry: For the compound O=C(Nc1cccc(Nc2ccc3c(/C=C/c4ccccc4)n[nH]c3c2)c1)C1CC2C=CC1CC2 (configuration not stated) , give its reported inhibition at 0.01 µM.
Return: 6

Enquiry: For the compound "O=C(Cc1cc(F)cc(F)c1)Nc1cccc(C(=O)c2ccc3c(/C=C/c4ccccc4)n[nH]c3c2)c1" , give its reported inhibition at 0.01 µM.
Return: 87

Enquiry: For the compound O=C(c1cccc(NC(=O)C2C[C@H]3C[C@@H]2CCC3O)c1)c1ccc2c(/C=C/c3ccccc3)n[nH]c2c1 (some centres not stated) , give its reported inhibition at 0.01 µM.
Return: 27

Enquiry: For the compound "C[C@@H](CC(=O)Nc1cccc(Oc2ccc3c(/C=C/c4ccccc4)n[nH]c3c2)c1)c1ccccc1" , give its reported inhibition at 0.01 µM.
Return: 42

Enquiry: For the compound "O=C1C[C@H](C(=O)Nc2cccc(Oc3ccc4c(/C=C/c5ccccc5)n[nH]c4c3)c2)NC(=O)N1" , give its reported inhibition at 0.01 µM.
Return: -6

Enquiry: For the compound "O=C(Nc1cccc(Nc2ccc3c(/C=C/c4ccccc4)n[nH]c3c2)c1)C1=C[C@@H](O)[C@@H](O)[C@H](O)C1" , give its reported inhibition at 0.01 µM.
Return: 6

Enquiry: For the compound "CC(=O)N1CCC[C@@H]1C(=O)Nc1cccc(C(=O)c2ccc3c(/C=C/c4ccccc4)n[nH]c3c2)c1" , give its reported inhibition at 0.01 µM.
Return: 37

Enquiry: For the compound "Cc1nc(S)sc1CC(=O)Nc1cccc(C(=O)c2ccc3c(/C=C/c4ccccc4)n[nH]c3c2)c1" , give its reported inhibition at 0.01 µM.
Return: 24

====

test summary: Terminal half life in B6 mouse at 40 mg/kg, po by UV-HPLC analysis
Assay type: ADME, organism-based
condition description: in vivo, read-out: beta t1/2 (converted)
metric: half-life

Enquiry: For the molecule "CCn1nc(C)cc1C(=O)Nc1cccc(C(=O)c2ccc3c(/C=C/c4ccccn4)n[nH]c3c2)c1.Cl" , give its reported half-life.
Return: 2.4 h

====

test summary: Antiproliferative activity against VEGF-stimulated HUVEC cells assessed as reduction in cell viability at 10 nM preincubated for 1 hr followed by addition of VEGF measured after 72 hrs by MTT assay
Type: functional
condition description: Homo sapiens
Please respond with reported inhibition at 0.01 µM for every item in the list.
Express the result in % but write the number alone.

Enquiry: For the compound "CC(=O)NC(C)(C)CC(=O)Nc1cccc(Oc2ccc3c(/C=C/c4ccccc4)n[nH]c3c2)c1" , give its reported inhibition at 0.01 µM.
Return: 42

Enquiry: For the compound "Cc1cc(C(=O)Nc2cccc(Nc3ccc4c(/C=C/c5ccccc5)n[nH]c4c3)c2)oc(=O)c1" , give its reported inhibition at 0.01 µM.
Return: -8

Enquiry: For the compound "CC1(C)OC(=O)[C@H](CC(=O)Nc2cccc(C(=O)c3ccc4c(/C=C/c5ccccc5)n[nH]c4c3)c2)O1" , give its reported inhibition at 0.01 µM.
Return: 19

Enquiry: For the compound "COc1ccccc1/C=C/C(=O)Nc1cccc(Nc2ccc3c(/C=C/c4ccccc4)n[nH]c3c2)c1" , give its reported inhibition at 0.01 µM.
Return: 10

Enquiry: For the compound "O=C(Nc1cccc(Nc2ccc3c(/C=C/c4ccccc4)n[nH]c3c2)c1)c1cccc2[nH]ccc12" , give its reported inhibition at 0.01 µM.
Return: 94

Enquiry: For the compound "O=C(/C=C/C(=O)Nc1cccc(Nc2ccc3c(/C=C/c4ccccc4)n[nH]c3c2)c1)NCC1CC1" , give its reported inhibition at 0.01 µM.
Return: 13

Enquiry: For the compound CN1CSCCC1C(=O)Nc1cccc(C(=O)c2ccc3c(/C=C/c4ccccc4)n[nH]c3c2)c1 (stereo unspecified) , give its reported inhibition at 0.01 µM.
Return: 8

Enquiry: For the compound "O=C1C[C@H](C(=O)Nc2cccc(C(=O)c3ccc4c(/C=C/c5ccccc5)n[nH]c4c3)c2)NC(=O)N1" , give its reported inhibition at 0.01 µM.
Return: -36

Enquiry: For the compound "CN(C)C(=S)SCC(=O)Nc1cccc(C(=O)c2ccc3c(/C=C/c4ccccc4)n[nH]c3c2)c1" , give its reported inhibition at 0.01 µM.
Return: 25

Enquiry: For the compound "CC1(C)C(C(=O)Nc2cccc(Oc3ccc4c(/C=C/c5ccccc5)n[nH]c4c3)c2)C1(C)C" , give its reported inhibition at 0.01 µM.
Return: 71

Enquiry: For the compound CC(C)=CC1C(C(=O)Nc2cccc(Nc3ccc4c(/C=C/c5ccccc5)n[nH]c4c3)c2)C1(C)C (stereo unspecified) , give its reported inhibition at 0.01 µM.
Return: 16

====

Please respond with reported inhibition at 0.01 µM for every item in the list.
test summary: Antiproliferative activity against VEGF-stimulated HUVEC cells assessed as reduction in cell viability at 10 nM preincubated for 1 hr followed by addition of VEGF measured after 72 hrs by MTT assay
Type: functional
condition description: Homo sapiens
Express the result in % but write the number alone.

Enquiry: For the compound O=C(c1cccc(NC(=O)C2CCOC2)c1)c1ccc2c(/C=C/c3ccccc3)n[nH]c2c1 (centres undefined) , give its reported inhibition at 0.01 µM.
Return: 12

Enquiry: For the compound "O=C(/C=C/C(=O)Nc1cccc(C(=O)c2ccc3c(/C=C/c4ccccc4)n[nH]c3c2)c1)NCC1CC1" , give its reported inhibition at 0.01 µM.
Return: 3

Enquiry: For the compound "CC1(C)OC(=O)[C@H](CC(=O)Nc2cccc(Oc3ccc4c(/C=C/c5ccccc5)n[nH]c4c3)c2)O1" , give its reported inhibition at 0.01 µM.
Return: 22

Enquiry: For the compound "CC(C)(C)c1ccc(C(=O)Nc2cccc(C(=O)c3ccc4c(/C=C/c5ccccc5)n[nH]c4c3)c2)o1" , give its reported inhibition at 0.01 µM.
Return: 71

====

Please respond with reported inhibition at 0.01 µM for every item in the list.
test summary: Antiproliferative activity against VEGF-stimulated HUVEC cells assessed as reduction in cell viability at 10 nM preincubated for 1 hr followed by addition of VEGF measured after 72 hrs by MTT assay
Assay type: functional
condition description: Homo sapiens
Express the result in % but write the number alone.

Enquiry: For the compound "COc1cccc(/C=C/C(=O)Nc2cccc(C(=O)c3ccc4c(/C=C/c5ccccc5)n[nH]c4c3)c2)c1" , give its reported inhibition at 0.01 µM.
Return: 35

Enquiry: For the compound "O=C1CCC(C(=O)Nc2cccc(Nc3ccc4c(/C=C/c5ccccc5)n[nH]c4c3)c2)CC1" , give its reported inhibition at 0.01 µM.
Return: -7

Enquiry: For the compound "CCNc1ccccc1C(=O)Nc1cccc(Nc2ccc3c(/C=C/c4ccccc4)n[nH]c3c2)c1" , give its reported inhibition at 0.01 µM.
Return: 71

Enquiry: For the compound "O=C(Nc1cccc(Oc2ccc3c(/C=C/c4ccccc4)n[nH]c3c2)c1)c1ccc(=O)oc1" , give its reported inhibition at 0.01 µM.
Return: 5

Enquiry: For the compound "O=C1CC[C@H](C(=O)Nc2cccc(Nc3ccc4c(/C=C/c5ccccc5)n[nH]c4c3)c2)N1" , give its reported inhibition at 0.01 µM.
Return: 20

Enquiry: For the compound "CC(C)(C)c1ccc(C(=O)Nc2cccc(Nc3ccc4c(/C=C/c5ccccc5)n[nH]c4c3)c2)o1" , give its reported inhibition at 0.01 µM.
Return: 60

Enquiry: For the compound "CC(C)CC(=O)C(=O)Nc1cccc(Nc2ccc3c(/C=C/c4ccccc4)n[nH]c3c2)c1" , give its reported inhibition at 0.01 µM.
Return: 11

Enquiry: For the compound "COc1cccc(/C=C/C(=O)Nc2cccc(Oc3ccc4c(/C=C/c5ccccc5)n[nH]c4c3)c2)c1" , give its reported inhibition at 0.01 µM.
Return: 64
